- ASSAY NOTES: label from the status in PepcDB records;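 further: failed if final PepcDB status was selected cloned or expressed and not failed if soluble or beyond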
VALUE TYPE: protein production

MVQNLSREQYGFVIWVVGNNSIPEEIRSLTTFLSWENLGTCLLLDPNAHVGSLCCSHRRVLLVEEFLGSYLSWGILDFDLFVQSNALNGGVIDMLRRFGVEVHISQPPTKTKKRSNANRKGFPDIELGKAMHSRALERNPSPMLLISSDSRLHTDVSHITSLAFEIILFHTKKAPKDLKDLATKRVLWFDGVSKLTEVRI failed
MNVDVLIGEILTLSMMAFALGMDAFSVGLGMGMAKLKRNQVFQIGVIIGLFHVIMPLGGMIAGQFLSGALGALAGYIGGALLLVLGIQMIVASFNKSGEQIISPHGFGLFVFAVGVSLDSFSVGLSLGLYGTKPILTIFLFGLFSMVLTWAGLLLGKKVQTWLGAYSEALGGAILLSFGLKLLLPI failed
